# System: CCRIS mutagenicity, Ames/micronucleus/aberration tests
# Method Notes: CCRIS mutagenicity studies
# Condition Parameters: Test System: MOUSE LYMPHOMA; Strain/Indicator: L5178Y (TK+/TK-); Metabolic Activation: NONE; Method: SUSPENSION/PLATE
The source made the active and inactive calls. No rule for the calls is given here.
Write down the outcome that applies. Available outcomes: active, inactive

Q: Outcome? c1cscn1
Ans: inactive

Q: Outcome? CCCCC(CC)COC(=O)c1ccccc1C(=O)OCC(CC)CCCC (stereo not drawn)
Ans: inactive

Q: Outcome? CCOC(=O)/C=C\C(=O)OCC
Ans: active

Q: Outcome? CSC(C)(C)/C=N/O
Ans: inactive

Q: Outcome? [Na+]
Ans: active

Q: Outcome? CC(Cc1ccc(O)c(O)c1)C(C)Cc1ccc(O)c(O)c1 (stereo not drawn)
Ans: active

Q: Outcome? CS(=O)(=O)OCCCCOS(C)(=O)=O
Ans: active

Q: Outcome? CCO[Si](C)(C)OCC
Ans: inactive

Values were extracted from PubChem BioAssay AID1259407.
